test system: DIV30; assay: qHTS profiling for inhibitors of Plasmodium falciparum proliferation (AID 504749); also: nearly all actives have a fitted effect of over 60% in size; conditions: P. falciparum in erythrocytes, SYBR Green DNA, 72 h; series mostly up to 28.7 µM
Records with an inconclusive call do not appear. Activity calls are given as the source filed them. Calls follow the shape of the dose curve; as a rule, active = well fitted inhibition curve with a large enough effect; inconclusive = small, poorly fitted or top-dose-only effect; inactive = flat fitted curve, though single readings scatter.
The categories you may choose from are class 1 for active, class 0 for inactive

Q: For this compound, state the assay outcome: COc1ccccc1N1CCN(CC(O)COc2cccc3ccccc23)CC1 (configuration not stated)
A: class 0

Q: For this compound, state the assay outcome: Clc1ccc2nsnc2c1NC1=NCCN1
A: class 0

Q: For this compound, state the assay outcome: COc1ccccc1OCC(O)CN1CCN(CC(=O)Nc2c(C)cccc2C)CC1 (configuration not stated)
A: class 0

Q: For this compound, state the assay outcome: Cc1ccc(C(=O)Nc2ccc(S(=O)(=O)O)c3cc(S(=O)(=O)O)cc(S(=O)(=O)O)c23)cc1NC(=O)c1cccc(NC(=O)Nc2cccc(C(=O)Nc3cc(C(=O)Nc4ccc(S(=O)(=O)O)c5cc(S(=O)(=O)O)cc(S(=O)(=O)O)c45)ccc3C)c2)c1
A: class 0

Q: For this compound, state the assay outcome: CC(C)Cc1ccc(C(C)C(=O)O)cc1 (configuration not stated)
A: class 0

Q: For this compound, state the assay outcome: O=C1c2c(O)ccc(O)c2C(=O)c2c(NCCNCCO)ccc(NCCNCCO)c21
A: class 1

Q: For this compound, state the assay outcome: CC(=O)OCC(CCn1cnc2cnc(N)nc21)COC(C)=O
A: class 0

Q: For this compound, state the assay outcome: COc1nc(C)nc(Cl)c1NC1=NCCN1
A: class 0

Q: For this compound, state the assay outcome: CN(CCOc1ccc(NS(C)(=O)=O)cc1)CCc1ccc(NS(C)(=O)=O)cc1
A: class 0

Q: For this compound, state the assay outcome: CC(C)(Oc1ccc(C2CC2(Cl)Cl)cc1)C(=O)O (configuration not stated)
A: class 0

Q: For this compound, state the assay outcome: CC#C[C@]1(O)CC[C@H]2[C@@H]3CCC4=CC(=O)CCC4=C3[C@@H](c3ccc(N(C)C)cc3)C[C@@]21C
A: class 1

Q: For this compound, state the assay outcome: Clc1ccc2c(c1)C(N1CCNCC1)=Nc1ccccc1O2
A: class 0
